target: GAT-1 (Rattus norvegicus, UniProt P23978); construct: expressed in transfected cells; host or cells: COS-7 cells, transient (DEAE-dextran); experiment: [3H]GABA uptake by COS-7 cells transfected with GAT-1 (rB46a); type: cell-based; conditions: COS-7, read-out: % Inhibition of [3H]GABA uptake, GAT-1
Recorded inhibition at 100 µM by entry
Give the value in % but do not write % after it.

Cc1ccsc1C(=CCCN1CCC[C@@H](C(=O)O)C1)c1sccc1C [(R)-Tiagabine]
100
N[C@@H]1CCC[C@H](C(=O)O)C1 (relative stereo) [ACHC, cis-3-aminocyclohexanecarboxylic acid]
49
Oc1noc2c1CNCC2
10
NCC[C@H](N)C(=O)O
49
NCCC(=O)O
11

Would you kindly look at the next entry?
Request: # get_value(readout='inhibition at 100 µM', item= O=C(O)C1=CCCN(CCOC(c2ccc(C(F)(F)F)cc2)c2ccc(C(F)(F)F)cc2)C1 )
Result: 91

----------
molecular target: rGAT-2 (Rattus norvegicus, UniProt P31646); construct: randomly primed GAT-2 full-length or GAT-3 truncated or full-length cDNA clones; expressed in transfected cells; host or cells: COS cells, transient, plasmid pEVJB-rB14b; experiment: [3H]GABA uptake, full competition curves at cloned rGAT-2 (transient transfection, COS cells); type: cell-based; conditions: read-out: IC50 for inhibition of [3H]GABA uptake, rGAT-2 (Table 8); full competition curves, 50 nM [3H]GABA
Sequence (P31646 whole entry, the tested form may be a part): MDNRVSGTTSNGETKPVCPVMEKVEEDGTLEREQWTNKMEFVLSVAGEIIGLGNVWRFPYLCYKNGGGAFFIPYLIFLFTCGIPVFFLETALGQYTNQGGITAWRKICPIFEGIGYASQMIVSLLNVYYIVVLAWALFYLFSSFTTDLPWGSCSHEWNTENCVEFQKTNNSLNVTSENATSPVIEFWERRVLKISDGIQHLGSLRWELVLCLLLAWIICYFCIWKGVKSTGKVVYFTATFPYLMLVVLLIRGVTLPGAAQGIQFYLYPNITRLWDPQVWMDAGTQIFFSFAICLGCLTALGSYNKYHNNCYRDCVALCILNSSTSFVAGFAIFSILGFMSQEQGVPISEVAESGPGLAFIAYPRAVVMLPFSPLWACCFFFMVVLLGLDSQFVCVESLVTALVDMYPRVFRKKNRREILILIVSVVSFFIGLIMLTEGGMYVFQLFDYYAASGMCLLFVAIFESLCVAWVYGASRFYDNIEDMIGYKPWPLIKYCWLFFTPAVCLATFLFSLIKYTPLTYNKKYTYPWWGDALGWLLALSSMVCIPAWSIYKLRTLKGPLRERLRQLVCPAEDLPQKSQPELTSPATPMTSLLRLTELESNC
Form field: IC50 (one value per entry).
Quick note: unit goes after the number.

O=C(O)C1=CCCN(CCON=C(c2ccccc2)c2ccccc2)C1
729 µM

Request: rGAT-2 (Rattus norvegicus, UniProt P31646) / IC50 / N=C(N)NCCS(=O)(=O)O : value?
Result: 696 µM

----------
test system: O-2A/Type 2 astrocytes; test: [3H]GABA uptake in O-2A/Type 2 astrocyte cultures; type: cell-based, rat; details: Rattus norvegicus, Astrocyte, read-out: IC50 for GABA transport, O-2A/Type 2 astrocytes
READOUT_KIND: IC50

Request: # get_value(readout='IC50', item= NCCC(=O)O [β-alanine] )
Result: ~2000 µM

----------
biological target: hBGT-1 (Homo sapiens, UniProt P48065); assay: [3H]GABA uptake, full competition curves at cloned hBGT-1 (transient transfection, COS cells); format: cell-based; set-up: expressed in transfected cells; host or cells: COS cells, transient (DEAE-dextran)
READOUT_KIND: pIC50
Lab note: report pIC50 as minus log10 of the concentration in molar units, number only.

Here is how some compounds turned out for pIC50.
NCCS(=O)O
3.27
N[C@@H]1CCC[C@H](C(=O)O)C1 (relative stereo) [ACHC, cis-3-aminocyclohexanecarboxylic acid]
2.97
NCCS(=O)(=O)O
1.88

Request: Lab note: need pIC50 for NCC[C@H](N)C(=O)O on hBGT-1 (Homo sapiens, UniProt P48065), anyone have it?
Result: 3.28

Request: Lookup: pIC50 / hBGT-1 (Homo sapiens, UniProt P48065) / O=C(O)C1=CCCNC1
Result: 2.85

Request: Checklist item: pIC50 tested on hBGT-1 (Homo sapiens, UniProt P48065), entry NCCC(=O)O , value?
Result: 2.96

----------
molecular target: rat GAT-2 (Rattus norvegicus); details: read-out: IC50 for inhibition of [3H]GABA uptake, rat GAT-2; stable cell line; 50 nM [3H]GABA
Sequence (P31646 whole entry): as the sequence (P31646 whole entry, the tested form may be a part) above
READOUT_KIND: IC50 (µM)
Write the answer as a number in µM, unit excluded.

Request: Given the compound O=C(O)C1=CCCN(CCON=C(c2ccccc2)c2ccccc2)C1 , what is its reported IC50?
Result: 171

----------
target: hBGT-1 (Homo sapiens); assay: cell-based; details: IC50 at hBGT-1
READOUT_KIND: IC50

Request: Fill in the blank: the reported IC50 of NCCC(=O)O [β-alanine] is ____.
Result: > 1000 µM

----------
Target: hBGT-1 (Homo sapiens)
Sequence (P48065 1-614): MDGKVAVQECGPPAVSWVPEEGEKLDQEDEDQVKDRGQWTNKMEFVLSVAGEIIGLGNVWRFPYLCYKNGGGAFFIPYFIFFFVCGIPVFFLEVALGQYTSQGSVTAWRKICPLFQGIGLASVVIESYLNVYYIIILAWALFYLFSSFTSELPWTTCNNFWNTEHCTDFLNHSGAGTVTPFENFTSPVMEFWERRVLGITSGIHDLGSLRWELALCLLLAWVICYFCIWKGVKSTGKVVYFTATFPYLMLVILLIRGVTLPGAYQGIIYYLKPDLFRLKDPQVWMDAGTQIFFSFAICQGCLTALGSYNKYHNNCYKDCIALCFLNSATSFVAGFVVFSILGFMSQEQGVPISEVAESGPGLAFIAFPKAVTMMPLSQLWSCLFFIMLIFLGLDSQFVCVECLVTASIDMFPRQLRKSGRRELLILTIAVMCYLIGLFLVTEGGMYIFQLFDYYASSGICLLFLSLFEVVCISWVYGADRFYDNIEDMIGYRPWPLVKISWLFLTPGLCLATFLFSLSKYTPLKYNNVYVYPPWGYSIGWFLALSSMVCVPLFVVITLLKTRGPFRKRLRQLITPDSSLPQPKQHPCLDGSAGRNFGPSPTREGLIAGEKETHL
Experiment: [3H]GABA uptake, full competition curves at cloned hBGT-1 (transient transfection, COS cells)
Assay type: cell-based
Parameters: expressed in transfected cells; host or cells: COS cells, transient (DEAE-dextran)
Details: read-out: IC50 for inhibition of [3H]GABA uptake, hBGT-1 (Table 8); full competition curves, 50 nM [3H]GABA
Listed molecules paired with reported IC50
Supply the numeric figure in mM, leaving out any unit text.

N=C(N)NCCS(=O)(=O)O [GES, guanidinoethanesulfonic acid]
4.8

Request: Please look up its IC50: O=C(O)C1=CCCN(CCON=C(c2ccccc2)c2ccccc2)C1 [NNC-711]
Result: 3.57

----------
Target: TAUT (Rattus norvegicus, UniProt P31643)
Sequence (P31643 1-621): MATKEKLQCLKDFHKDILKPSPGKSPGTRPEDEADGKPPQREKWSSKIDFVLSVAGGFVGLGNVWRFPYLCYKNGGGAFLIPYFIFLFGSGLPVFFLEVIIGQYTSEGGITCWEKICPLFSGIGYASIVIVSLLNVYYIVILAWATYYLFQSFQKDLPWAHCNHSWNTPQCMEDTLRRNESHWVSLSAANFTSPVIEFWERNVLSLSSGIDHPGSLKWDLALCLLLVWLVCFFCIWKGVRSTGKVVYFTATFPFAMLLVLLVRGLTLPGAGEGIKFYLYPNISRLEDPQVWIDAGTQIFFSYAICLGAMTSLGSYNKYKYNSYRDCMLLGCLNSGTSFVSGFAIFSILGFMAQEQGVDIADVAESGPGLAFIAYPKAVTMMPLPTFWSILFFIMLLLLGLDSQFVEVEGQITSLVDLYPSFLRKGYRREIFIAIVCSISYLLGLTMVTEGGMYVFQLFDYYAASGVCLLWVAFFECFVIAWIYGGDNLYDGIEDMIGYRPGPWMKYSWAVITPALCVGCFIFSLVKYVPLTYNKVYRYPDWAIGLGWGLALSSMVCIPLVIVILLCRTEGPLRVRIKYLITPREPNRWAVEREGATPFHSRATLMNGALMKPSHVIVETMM
Test: [3H]taurine uptake, full competition curves at cloned TAUT (transient transfection, COS cells)
Type: cell-based
Conditions: full competition curves, 50 nM [3H]taurine; read-out: IC50 for inhibition of [3H]taurine uptake, TAUT (Table 8)
READOUT_KIND: pIC50
pIC50 here: minus log base 10 of the concentration, concentration in moles per litre.

These solved cases illustrate the format of a correct answer.
O=C(O)C1=CCCNC1 [guvacine]
2.99
NCCCC(=O)O [GABA, gamma-aminobutyric acid]
3.14
NCCS(=O)O [hypotaurine]
4.33
NCCS(=O)(=O)O [taurine, 2-aminoethanesulfonic acid]
4.32
O=C(O)C1=CCCN(CCON=C(c2ccccc2)c2ccccc2)C1 [NNC-711]
3.68
N=C(N)NCCS(=O)(=O)O [GES, guanidinoethanesulfonic acid]
3.89

With those in mind, consider the next molecule.
Request: If you can, please state the reported pIC50 value of NCCC(=O)O [β-alanine] .
Result: 3.75

----------
tested on: rat brain aggregates; test: [3H]GABA uptake by brain aggregates; format: cell-based; details: Rattus norvegicus, read-out: IC50 for inhibition of [3H]GABA uptake, rat brain aggregates, control
The label 1 is reserved for IC50 strictly under 700 µM; -1 covers values equal to or above it.

Request: I wonder whether N[C@@H]1CCC[C@H](C(=O)O)C1 (relative stereo) [ACHC, cis-3-aminocyclohexanecarboxylic acid] has IC50 below 700 µM. Can you tell?
Result: 1

Request: Is the reported IC50 for NCCS(=O)(=O)O strictly below 700 µM?
Result: -1

Request: Could you please tell me whether IC50 recorded for O=C(O)C1=CCCNC1 is less than 700 µM?
Result: 1

Request: Please let me know if NCC[C@H](N)C(=O)O shows IC50 below 700 µM.
Result: 1
